These data points were gathered from ChEMBL document CHEMBL1139661.

test: AUC in Wistar rat at 10 mg/kg, po; assay type: ADME, organism-based; parameters: dose 10 mg/kg, route oral; settings: plasma
Measured parameter: AUC (ng·h/mL)

[A] CCOC(=O)C[C@@H](CN1CCc2cc(F)ccc21)NC(=O)[C@H](CCC1CCCCC1)NC(=O)c1cccc(OC)c1
[B] COc1cccc(C(=O)N[C@@H](CC(C)(C)C)C(=O)N[C@@H](CC(=O)O)CN2CCc3cc(F)ccc32)c1
# argmax over AUC for candidates A and B Please respond with the label that marks your chosen entry. A

###

assay: Oral bioavailability in Wistar rat at 10 mg/kg, po; assay type: ADME, organism-based; conditions: in vivo
Measured parameter: bioavailability (%)

[1] CCOC(=O)C[C@@H](CN1CCc2cc(F)ccc21)NC(=O)[C@H](CCC1CCCCC1)NC(=O)c1cccc(OC)c1
[2] COc1cccc(C(=O)N[C@@H](CC(C)(C)C)C(=O)N[C@@H](CC(=O)O)CN2CCc3cc(F)ccc32)c1
Determine, for 1 and 2 , which has the greater value of bioavailability. Selection: enter the item's label. 1
(1: 8%, 2: 2%)
